Source listed as paper PMC12652113.

# Experiment Summary: Absorption and fluorescence photophysical characterization in organic solvents
# Type: physicochemical
# Conditions: chloroform (CFM)
This section presents compounds with their documented Stokes shift (ΔS) values.
Numeric only. Scale: nm

{"Smiles Repr": "CC1(C)C(=CC2=C([O-])C(=CC3=[N+](CCCc4ccccc4)c4ccccc4C3(C)C)C2=O)N(CCCc2ccccc2)c2ccccc21", "Stokes shift (ΔS) [nm]": 1}

What value of measured Stokes shift (ΔS) is listed for CNC1=C(C=C2N(CCCc3ccccc3)c3ccccc3C2(C)C)C(=O)C1=CC1=[N+](CCCc2ccccc2)c2ccccc2C1(C)C.[I-] ?
13

What value of measured Stokes shift (ΔS) is listed for CC1(C)C(=CC2=C(N)C(=CC3=[N+](CCCc4ccccc4)c4ccccc4C3(C)C)C2=O)N(CCCc2ccccc2)c2ccccc21.[I-] ?
9

What value of measured Stokes shift (ΔS) is listed for CC1(C)C(=CC2=C(NCc3ccc4ccc5cccc6ccc3c4c56)C(=CC3=[N+](CCCc4ccccc4)c4ccccc4C3(C)C)C2=O)N(CCCc2ccccc2)c2ccccc21.[I-] ?
13

----------
# Experiment Summary: Absorption and fluorescence photophysical characterization in organic solvents
# Type: physicochemical
# Conditions: methanol (MeOH)
Assay Metric: Stokes shift (ΔS) (nm)
Numeric only. Scale: nm

Use these answered entries as a reference point.
{"Smiles Repr": "CNC1=C(C=C2N(CCCc3ccccc3)c3ccccc3C2(C)C)C(=O)C1=CC1=[N+](CCCc2ccccc2)c2ccccc2C1(C)C.[I-]", "Stokes shift (ΔS) / nm": 11}
{"Smiles Repr": "CC1(C)C(=CC2=C([O-])C(=CC3=[N+](CCCc4ccccc4)c4ccccc4C3(C)C)C2=O)N(CCCc2ccccc2)c2ccccc21", "Stokes shift (ΔS) / nm": 13}
{"Smiles Repr": "CC1(C)C(=CC2=C(N)C(=CC3=[N+](CCCc4ccccc4)c4ccccc4C3(C)C)C2=O)N(CCCc2ccccc2)c2ccccc21.[I-]", "Stokes shift (ΔS) / nm": 12}

Would you kindly look at the next entry?
What value of measured Stokes shift (ΔS) is listed for CC1(C)C(=CC2=C(NCc3ccc4ccc5cccc6ccc3c4c56)C(=CC3=[N+](CCCc4ccccc4)c4ccccc4C3(C)C)C2=O)N(CCCc2ccccc2)c2ccccc21.[I-] ?
13

----------
# Tgt: human serum albumin (HSA) (Homo sapiens)
# Experiment Summary: Fluorometric squaraine-albumin binding titration
# Conditions: phosphate buffer (pH 7.4), HSA presence
# Procedure: For fluorometric experiments, the squaraine stock solutions were initially prepared in dimethylformamide and subsequently diluted with phosphate buffer for the protein–dye interaction analysis. […] Fluorescence intensities of the resulting solutions were recorded after 0, 3, and 24 h of incubation with the protein. […] Quantification and detection limits (QL and DL, respectively) were determined from a calibration curve of maximum fluorescence intensity against protein concentration. […]
Assay Metric: Stokes shift (ΔS)
Report the figure along with its unit, number first.

Use these answered entries as a reference point.
{"Smiles Repr": "CC1(C)C(=CC2=C([O-])C(=CC3=[N+](CCCc4ccccc4)c4ccccc4C3(C)C)C2=O)N(CCCc2ccccc2)c2ccccc21", "Stokes shift (ΔS)": "45 nm"}
{"Smiles Repr": "CC1(C)C(=CC2=C(N)C(=CC3=[N+](CCCc4ccccc4)c4ccccc4C3(C)C)C2=O)N(CCCc2ccccc2)c2ccccc21.[I-]", "Stokes shift (ΔS)": "8 nm"}
{"Smiles Repr": "CNC1=C(C=C2N(CCCc3ccccc3)c3ccccc3C2(C)C)C(=O)C1=CC1=[N+](CCCc2ccccc2)c2ccccc2C1(C)C.[I-]", "Stokes shift (ΔS)": "10 nm"}

Would you kindly look at the next entry?
What value of measured Stokes shift (ΔS) is listed for CC1(C)C(=CC2=C(NCc3ccc4ccc5cccc6ccc3c4c56)C(=CC3=[N+](CCCc4ccccc4)c4ccccc4C3(C)C)C2=O)N(CCCc2ccccc2)c2ccccc21.[I-] ?
4 nm

----------
# System: normal human dermal fibroblasts (NHDF)
# Experiment Summary: MTT dark and light-induced cytotoxicity in NHDF
# Type: cell-based
# Conditions: Homo sapiens; NHDF, Dark; 24 h incubation, MTT 24 h later
Assay Metric: IC50 (µM)
Numeric only. Scale: µM

{"Compound": "CC1(C)C(=CC2=C(N)C(=CC3=[N+](CCCc4ccccc4)c4ccccc4C3(C)C)C2=O)N(CCCc2ccccc2)c2ccccc21.[I-] [Dye 9]", "Recorded Result": 6.8}

What value of measured IC50 is listed for CNC1=C(C=C2N(CCCc3ccccc3)c3ccccc3C2(C)C)C(=O)C1=CC1=[N+](CCCc2ccccc2)c2ccccc2C1(C)C.[I-] [Dye 11] ?
6.57

----------
# Experiment Summary: Absorption and fluorescence photophysical characterization in organic solvents
# Type: physicochemical
# Conditions: DMSO
This section presents compounds with their documented absorption maximum (λabs) values.
Report the figure along with its unit, number first.

Use these answered entries as a reference point.
{"Smiles Repr": "CNC1=C(C=C2N(CCCc3ccccc3)c3ccccc3C2(C)C)C(=O)C1=CC1=[N+](CCCc2ccccc2)c2ccccc2C1(C)C.[I-]", "absorption maximum (λabs)": "663 nm"}
{"Smiles Repr": "CC1(C)C(=CC2=C(N)C(=CC3=[N+](CCCc4ccccc4)c4ccccc4C3(C)C)C2=O)N(CCCc2ccccc2)c2ccccc21.[I-]", "absorption maximum (λabs)": "652 nm"}
{"Smiles Repr": "CC1(C)C(=CC2=C([O-])C(=CC3=[N+](CCCc4ccccc4)c4ccccc4C3(C)C)C2=O)N(CCCc2ccccc2)c2ccccc21", "absorption maximum (λabs)": "646 nm"}

Would you kindly look at the next entry?
What value of measured absorption maximum (λabs) is listed for CC1(C)C(=CC2=C(NCc3ccc4ccc5cccc6ccc3c4c56)C(=CC3=[N+](CCCc4ccccc4)c4ccccc4C3(C)C)C2=O)N(CCCc2ccccc2)c2ccccc21.[I-] ?
661 nm

----------
# Tgt: human serum albumin (HSA) (Homo sapiens, UniProt P02768)
# Sequence (P02768 25-609): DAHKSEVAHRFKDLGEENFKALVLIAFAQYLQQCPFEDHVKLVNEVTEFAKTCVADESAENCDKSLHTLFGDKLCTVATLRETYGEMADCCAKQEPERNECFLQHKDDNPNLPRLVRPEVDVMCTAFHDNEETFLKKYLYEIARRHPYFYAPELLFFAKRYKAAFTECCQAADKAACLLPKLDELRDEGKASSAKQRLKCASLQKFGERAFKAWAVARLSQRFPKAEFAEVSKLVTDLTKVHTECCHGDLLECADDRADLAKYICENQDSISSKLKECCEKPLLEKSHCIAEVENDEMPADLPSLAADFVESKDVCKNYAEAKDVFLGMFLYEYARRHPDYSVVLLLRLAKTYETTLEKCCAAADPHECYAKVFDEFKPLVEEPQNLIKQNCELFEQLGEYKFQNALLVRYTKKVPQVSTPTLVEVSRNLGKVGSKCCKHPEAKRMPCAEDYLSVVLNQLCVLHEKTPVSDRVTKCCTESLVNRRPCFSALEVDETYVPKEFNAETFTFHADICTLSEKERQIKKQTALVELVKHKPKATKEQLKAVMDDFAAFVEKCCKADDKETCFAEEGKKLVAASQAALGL
# Experiment Summary: Fluorometric squaraine-albumin binding titration
# Conditions: dye 2.0 µM in phosphate buffer, no HSA
Assay Metric: fluorescence intensity without protein (F0) (a.u.)
Numeric only. Scale: a.u.

{"Smiles Repr": "CNC1=C(C=C2N(CCCc3ccccc3)c3ccccc3C2(C)C)C(=O)C1=CC1=[N+](CCCc2ccccc2)c2ccccc2C1(C)C.[I-]", "Tgt": "human serum albumin (HSA) (Homo sapiens, UniProt P02768)", "Output Unit": "a.u.", "Recorded Result": 1.00}
{"Smiles Repr": "CC1(C)C(=CC2=C(NCc3ccc4ccc5cccc6ccc3c4c56)C(=CC3=[N+](CCCc4ccccc4)c4ccccc4C3(C)C)C2=O)N(CCCc2ccccc2)c2ccccc21.[I-]", "Tgt": "human serum albumin (HSA) (Homo sapiens, UniProt P02768)", "Output Unit": "a.u.", "Recorded Result": 4.12}
{"Smiles Repr": "CC1(C)C(=CC2=C([O-])C(=CC3=[N+](CCCc4ccccc4)c4ccccc4C3(C)C)C2=O)N(CCCc2ccccc2)c2ccccc21", "Tgt": "human serum albumin (HSA) (Homo sapiens, UniProt P02768)", "Output Unit": "a.u.", "Recorded Result": 11.46}

What value of measured fluorescence intensity without protein (F0) is listed for CC1(C)C(=CC2=C(N)C(=CC3=[N+](CCCc4ccccc4)c4ccccc4C3(C)C)C2=O)N(CCCc2ccccc2)c2ccccc21.[I-] ?
9.30

----------
This section presents compounds with their documented fluorescence quantum yield (ΦF) values.
# Experiment Summary: Photophysical properties in phosphate buffer in the absence of HSA
# Type: physicochemical
# Conditions: phosphate buffer (pH 7.4)
Write the number on its own, no unit after it.

Use these answered entries as a reference point.
{"Smiles Repr": "CC1(C)C(=CC2=C([O-])C(=CC3=[N+](CCCc4ccccc4)c4ccccc4C3(C)C)C2=O)N(CCCc2ccccc2)c2ccccc21", "fluorescence quantum yield (ΦF)": 0.02}
{"Smiles Repr": "CC1(C)C(=CC2=C(N)C(=CC3=[N+](CCCc4ccccc4)c4ccccc4C3(C)C)C2=O)N(CCCc2ccccc2)c2ccccc21.[I-]", "fluorescence quantum yield (ΦF)": 0.00}
{"Smiles Repr": "CC1(C)C(=CC2=C(NCc3ccc4ccc5cccc6ccc3c4c56)C(=CC3=[N+](CCCc4ccccc4)c4ccccc4C3(C)C)C2=O)N(CCCc2ccccc2)c2ccccc21.[I-]", "fluorescence quantum yield (ΦF)": 0.00}

What value of measured fluorescence quantum yield (ΦF) is listed for CNC1=C(C=C2N(CCCc3ccccc3)c3ccccc3C2(C)C)C(=O)C1=CC1=[N+](CCCc2ccccc2)c2ccccc2C1(C)C.[I-] ?
0.01

----------
# Tgt: human serum albumin (HSA) (Homo sapiens)
# Experiment Summary: Fluorometric squaraine-albumin binding titration
# Conditions: phosphate buffer (pH 7.4), HSA presence
Assay Metric: absorption maximum (λabs)

What value of measured absorption maximum (λabs) is listed for CNC1=C(C=C2N(CCCc3ccccc3)c3ccccc3C2(C)C)C(=O)C1=CC1=[N+](CCCc2ccccc2)c2ccccc2C1(C)C.[I-] ?
652 nm

What value of measured absorption maximum (λabs) is listed for CC1(C)C(=CC2=C(N)C(=CC3=[N+](CCCc4ccccc4)c4ccccc4C3(C)C)C2=O)N(CCCc2ccccc2)c2ccccc21.[I-] ?
651 nm

What value of measured absorption maximum (λabs) is listed for CC1(C)C(=CC2=C([O-])C(=CC3=[N+](CCCc4ccccc4)c4ccccc4C3(C)C)C2=O)N(CCCc2ccccc2)c2ccccc21 ?
604 nm

What value of measured absorption maximum (λabs) is listed for CC1(C)C(=CC2=C(NCc3ccc4ccc5cccc6ccc3c4c56)C(=CC3=[N+](CCCc4ccccc4)c4ccccc4C3(C)C)C2=O)N(CCCc2ccccc2)c2ccccc21.[I-] ?
663 nm
